src = the nanobody polyreactivity screen of Harvey et al. (2022)

Assay: yeast display, Sf9 membrane polyspecificity reagent, FACS + sequencing; frameworks hold sequencing errors
reportedMetric: polyreactivity (PSR sort gate)

QVQLVESGGGLVQAGGSLRLSCAASGITFDKYAMGWYRQAPGKERELVAAISWGGGRTYYADSVKGRFTISRDNAKNTVYLQMNSLKPEDTAVYYCATSHGLYTRWYDYWGQGTQVTVSS : high polyreactivity
QVQLVESGGGLVQAGGSLRLSCAASGLNFSEYAMGWYRQAPGKERELVAAIRSDGGSTYYADSVKGRFTISRDNAKNTVYLQMNSLKPEVTAVYYCNAPYRRSAKFRRYVYDYWGQGTQVTVSS : high polyreactivity

###

Assay: yeast display, Sf9 membrane polyspecificity reagent, FACS + sequencing; frameworks hold sequencing errors
reportedMetric: polyreactivity (PSR sort gate)

QVQLVESVGGIVQAGGSLRLSCAASGRTFYVYAMGWYRQARGKERELVASIRWRGSTYYADSVKGRFTISRDNAKNTVYLKMNSLKPEDTAVYYCAARYPYELGFDYWGQGTQVTVSS : low polyreactivity
QVQLVESGGGLVQAGGSLRLSCAASGRTFGVNAMGWYRQAPGKERELVASISNKGSTYYADSVKGRFTISRDNAKNTVYLQMNSLKPEDTAVYYCAADEYWSWDGTRYGVHYYYWGQGTQVTVSS : low polyreactivity
QVQLVESGGGLVQAGGSLRLSCAASGYTFGSNVMGWYRQAPGKERELVAAITFSGGSTYYADSVKRRFTISRDNAKNTVFLLMIRLKPEDTAVYYCAVRYVRYYAWYYYWGQGTQVTVSS : high polyreactivity
QVQLVESGRGLVQAGGILRLSCAASGFIFYYYAMVWYRQAPGKERELVAAISQRGGRTYYAESVKGSFTISRDYAKNTVYLQMNSLKTEDTAVYYCAARPAYRSSYYWGQGTQVTVSS : high polyreactivity
QVQLVESGGGLVQAGGSLRLSCAASGRIFSTYVMGWYRQAPGKERELVAAIRNRGGSTYYADSVKGRFTISRDNAKNTVYLQMNSLKPEDTAVYYCAAEYSYRYRVSMDYWGQGTQVTVSS : high polyreactivity
QVQLVESGGGLVQAGGILRLSCAASGFIFVRYAMGWYRQAPGKERELVAAISWRGGSTYYADSVKGRFTISRDNAKNTVYLQMNSLKPEDTAVFYCSAVTWVHRYSRFHPFVAFDYWGQGTQVTVSS : high polyreactivity
QVQLVESGGGLVQAGGSLRLSCAASGLTFTTYTMGWYRQAPGKERELVAAISSRGGSTYYADSVKGRFTISRDNAKNTVYLQMNRLKPEDTAVYYCNAPRPHRMDWGQGTQVTVSS : high polyreactivity
QVQLVESGGGLVQAGGSLRLSCAASGFTFGHYAMGWYRQAPGKERELVAAISIDGGRTYYADSVKGRFTISRDNAKNTVYLQMNSLKPEDTAVYYCAVPRWVYYTSDYDYWGQGTQVTVSS : high polyreactivity
QVQLVESGGGLVQAVGSLRLSCAPSGTTFTHYAMGWYRKAPGKERELVAAISWSGGSTYYADSVKGRFTISRDNAKNTVYLQMNSLKQEDCAVYYCKTYGVSYYGSGYYWGQGTQVTVSS : high polyreactivity
QVQLVESGGGLVQAGGSLRLSCAASGTTFSPNAMGWYRQAPGKERELVAAITGGGSTYADSVKGRFTISRDNAKNTVYLQMNSLKPEDTAVYYCNADSYSFPYYYWGQGTQVTVSS : low polyreactivity

The record that follows has no polyreactivity (PSR sort gate) shown yet.
QUERY: Fill in the blank: the reported polyreactivity (PSR sort gate) of QVQLVESGGGLVQAGGSLRLSCAGSGSTLTWNDMGWYRHAPGKERELVASITQSGDSTYYADSVKGRFTISRDNAKNTVYLQMNSLKPEDTAVYYCSGVYTYPLGYYHYTYDYWGQGTQVTVSS is ____.
RESULT: low polyreactivity

###

Assay: yeast display, Sf9 membrane polyspecificity reagent, FACS + sequencing; frameworks hold sequencing errors
reportedMetric: polyreactivity (PSR sort gate)

Worked examples, 6 sequences total:
QVQLVDSGGGLVQAGGSLRLSCPASGRIFGRNAMAWYRQAPGKERELVAAISSSGGTYYADSVKGRFTISRDNAKNTVYLQMNSLKPEDTAVYYCAADPLYYWWRGDYWGQGTQVTVSS : high polyreactivity
QVQLVESGGGLFQAGGSLRLSCAATGSTYIRYAMGWYRQAPGKEREFVAAITWSGTGTYYADSVKARFTISRDNAKNTVYLQMNSLKPEDTAVYYCAAEWSWVRYSFDYWGQGTQVTVSS : high polyreactivity
QVQLVESGGGLVQAGGSLRLSCAASGFTFRRNAMGWYRQAPGKERELVAVITTAGSTNYADSVKGRFTISRDNAKNTVYLQMTSLKPEDTAVYYCATDNGTRKRRYDYWGQGTQVNVSS : low polyreactivity
QVQLVESGGGLVQAGGSLRLSCAASGSTFQIYTMGWYRQAPGKERELVAAITNGGGSTYYADSVKGRFTISRDNAKNTVYLQMNSLKPEDTAVYYCAAEQRYPLIILYDYWGQGTHVTVSS : low polyreactivity
QVQLVESGGGLVQAGGSLRLSCAASGIIFGRYAMGWYRQAPGKERELVATSSRGGGRTYYADSVKGRFTISRDNAKYTVYLLMNSLIPEDTAVYYCASYFYRGGLDSWGQGTQVTVSS : high polyreactivity
QVQLQESGDGLVQAVGSLRLSCAARGYISGYYYMGWYRQAPGKERELVAGIDAFGSSTNYADCVKGRFTISRDNAKNTVYLQMNSLKPEDTAVYYCAARPDGDRLFSYWGQGTQVTVSS : low polyreactivity

QUERY: Fill in the blank: the reported polyreactivity (PSR sort gate) of QVQLVESGGGLVQAGGSLRLSCAASGFTFVGYAMGWYRQAPGKESELVAAITSSGGSTYYADSVKGRFTISRDNAKNTVYLQMNSLKPEDTAVYYCAAPAPVLSTQKRFDSWGQGTQVTVSS is ____.
RESULT: low polyreactivity

QUERY: Another: QVQLVESGGGLVQAGGSLRLSCAASGSTFYVNAMGWYRQAPGKEREFVAAISWSGGSTYYADSVKGRFTISRDNAKNTVYLQMNSLKPEDTAVYYCAADRVRKDGVLFDYWGQGTQGTVSS
RESULT: high polyreactivity

QUERY: Another: QVQLVESGGGLVHAGGSLRISCAASGSTFEWNAMGWYRQAPGKEREFVAAISKTGDGTYADSVKGRFTISRDNAKNSVYLQMNSLKPEDTAVYYCAAVDGFWVNYWYRIGYDYWGQGTQVTVSS
RESULT: low polyreactivity

QUERY: Another: QVQLVESGGGLVQAGGSLRLSCAASGSIFSRNTMGWYRQAPGKERELVAGISSSGSRTYYADSVKGRFTISRDNAKYTVYLQMNSLKPEDTAVYYCAAEHQRSRGRRYYIGYDYWGQGTQVTVSS
RESULT: low polyreactivity

QUERY: Another: QDQLVESGGGLVQAGGSLRLSCAASGSTYYYAMGWYRQAPGKERELVAAIRSGSRTYADSVKGRFTISRDNAKNTVYLQMNSLKPEDTAVYYCAATTWRHNFYSWGQGTQVTVSS
RESULT: high polyreactivity

###

Assay: yeast display, Sf9 membrane polyspecificity reagent, FACS + sequencing; frameworks hold sequencing errors
reportedMetric: polyreactivity (PSR sort gate)

QVQLVESGGGLVQAGGSLRLSCAASGLTFKYYTMGWYRQAPGKERELVADISRTGRTSYADSVKGRFTISRDNAKNTVYLQMNSLKPEDTAVYYCNALAGIAQRRTGYYNPGDYWGQGTQVTVSS : high polyreactivity
QVQLVESGGGLVLAGGSLRLSCAASGFTFPHYAMGWYRQAPGKERELVAVISWSGSSTYYADSVKGRFTISRDNAKNTVYLQMNSLKPEDTAVYYCNTRKLYQVDYDYWGQGTQVTVSS : high polyreactivity

###

Assay: yeast display, Sf9 membrane polyspecificity reagent, FACS + sequencing; frameworks hold sequencing errors
reportedMetric: polyreactivity (PSR sort gate)

Worked examples, 4 sequences total:
QVQLVESWGGLVQAGGSLRLSCAASGRTLGRNAMGWYRQAPGKEREWVASISSGGSTNYADSVKGRFTISRDNAKNTVYLQMNSLKPEDTAVYYCNKRYRSLYSSGYDYWGQGTQVTVSS : high polyreactivity
QVQLVETGGGLVQAGGSLRLSCAASGSTFYHNAMGWYRQAPGKERELVAAISIGGGRTYYADSVKGRFTISRDNAKNTVYLQMNSLKPEDTAVYYCAAGSPAVYGRGFNYWGQGTQVTVSS : low polyreactivity
QVQLVESGGGLVQAGGSLRLSCAASGITFGDNDMGWYRQAPGKDRELVASISSGGSTTYADSVKGRFTISRDNAKNTVYLQMNSLKPEDTADYYCNADYGSSVEYNYWGQGTQVTVSS : low polyreactivity
QVQLVESGGGLVQAGGSLRLSCAASGRIFRQNAMGWYRQAPGKERELVAAISRGGGSTYYADSVKGRFTISRDNAKNTVYLQMNSLKPDDTAVYYCAAFQAHQTAFDYWGQGTQVTVSS : high polyreactivity

The record that follows has no polyreactivity (PSR sort gate) shown yet.
QUERY: Fill in the blank: the reported polyreactivity (PSR sort gate) of QVQLVESGGGLVQAGGSLRLSCAASGRIFVGYAMGWYRQAPGKERELVAAISRSGARTYYADSVKGRFTISRAIAKNTVYLQMNSLKPVDTAVYYCNTVKVLIYSWGQGTQVTVSS is ____.
RESULT: high polyreactivity
